- targetUnderTest: Amine oxidase [flavin-containing] B (Homo sapiens)
- protocolSummary: Competitive inhibition of recombinant human MAO-B using kynuramine as substrate pre-incubated for 15 mins followed by 2 fold compound dilution for 24 hrs and subsequent substrate addition measured after 20 mins by Lineweaver-Burk plot analysis
valueKind: Ki

What value of Ki on Amine oxidase [flavin-containing] B (Homo sapiens) does C/C(=N/Nc1nc(-c2cccc([N+](=O)[O-])c2)cs1)C1CC1 have?
7.3 nM

###

- targetUnderTest: Amine oxidase [flavin-containing] B (Homo sapiens, UniProt P27338)
- Sequence (P27338 whole entry): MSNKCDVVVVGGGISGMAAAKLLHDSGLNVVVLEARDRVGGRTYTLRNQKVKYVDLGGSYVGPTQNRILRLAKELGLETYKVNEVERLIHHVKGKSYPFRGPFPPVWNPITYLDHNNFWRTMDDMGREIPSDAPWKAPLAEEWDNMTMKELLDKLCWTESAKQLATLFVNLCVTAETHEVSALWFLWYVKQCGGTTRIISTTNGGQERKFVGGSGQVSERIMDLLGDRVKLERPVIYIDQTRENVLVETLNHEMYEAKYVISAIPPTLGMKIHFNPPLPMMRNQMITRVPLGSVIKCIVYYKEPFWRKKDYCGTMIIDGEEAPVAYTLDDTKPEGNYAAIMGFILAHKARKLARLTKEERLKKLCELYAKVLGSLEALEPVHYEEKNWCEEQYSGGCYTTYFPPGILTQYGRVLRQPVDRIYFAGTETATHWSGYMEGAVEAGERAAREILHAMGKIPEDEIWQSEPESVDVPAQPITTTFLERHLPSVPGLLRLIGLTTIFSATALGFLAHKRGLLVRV
valueKind: log10 of IC50 (log10 of the value in nM)
Annotation: log10 of IC50, nM basis.

Given O=[N+]([O-])c1cccc(-c2csc(NN=C3CCCCC3)n2)c1 , state its recorded log10 of IC50.
1.67

Request: CCCCCC/C(C)=N\Nc1nc(-c2cccc([N+](=O)[O-])c2)cs1
2.80

Also CCCC/C(C)=N\Nc1nc(-c2cccc([N+](=O)[O-])c2)cs1 ?
2.07

Also check CC(C)=NNc1nc(-c2cccc([N+](=O)[O-])c2)cs1
2.85

Now this one: O=[N+]([O-])c1cccc(-c2csc(NN=C3CCCCCC3)n2)c1
0.93

Also CC1CCC(=NNc2nc(-c3cccc([N+](=O)[O-])c3)cs2)CC1 (configuration not stated) , if possible.
2.37

Check O=[N+]([O-])c1cccc(-c2csc(NN=C3CCCCCCC3)n2)c1 too.
1.00

###

- protocolSummary: Antioxidant activity assessed as ferric ion reducing activity using Fe3+-TPTZ after 30 mins by FRAP assay
- Format: functional
Answer each item with its documented EC50.
Express the result in µM but write the number alone.

# lookup: EC50 of CC1CCC(=NNc2nc(-c3cccc([N+](=O)[O-])c3)cs2)CC1 (stereo not drawn)
390

Would you mind doing CCCCCC/C(C)=N\Nc1nc(-c2cccc([N+](=O)[O-])c2)cs1 as well?
390

Next entry: CC(C)=NNc1nc(-c2cccc([N+](=O)[O-])c2)cs1
340

Now the same for C/C(CC(C)C)=N/Nc1nc(-c2cccc([N+](=O)[O-])c2)cs1
420

Proceed to C=CCC/C(C)=N\Nc1nc(-c2cccc([N+](=O)[O-])c2)cs1
330

Ok, now CCC/C(CC)=N\Nc1nc(-c2cccc([N+](=O)[O-])c2)cs1
390

Same again, this time with C/C(=N/Nc1nc(-c2cccc([N+](=O)[O-])c2)cs1)C1CCCCC1
670

Field entry: O=[N+]([O-])c1cccc(-c2csc(NN=C3CCCCCC3)n2)c1
420

Another compound to check: CC/C(C)=N\Nc1nc(-c2cccc([N+](=O)[O-])c2)cs1
420

What about CCCC/C(CC)=N\Nc1nc(-c2cccc([N+](=O)[O-])c2)cs1 ?
410

Next: O=[N+]([O-])c1cccc(-c2csc(NN=C3CCCCCCC3)n2)c1
390

Entry O=[N+]([O-])c1cccc(-c2csc(NN=C3CCCC3)n2)c1 please
400

Again, but for CCCC/C(C)=N\Nc1nc(-c2cccc([N+](=O)[O-])c2)cs1
370

Next compound: CCC(CC)=NNc1nc(-c2cccc([N+](=O)[O-])c2)cs1
340

And then Cc1c(C)c2c(c(C)c1O)CCC(C)(C(=O)O)O2 (stereo not drawn) , what is it?
160

Field entry: O=[N+]([O-])c1cccc(-c2csc(NN=C3CCCCC3)n2)c1
330

Would you mind doing C/C(=N/Nc1nc(-c2cccc([N+](=O)[O-])c2)cs1)C1CC1 as well?
470

Item: CCC/C(C)=N\Nc1nc(-c2cccc([N+](=O)[O-])c2)cs1
450

###

- targetUnderTest: Amine oxidase [flavin-containing] A (Homo sapiens, UniProt P21397)
- protocolSummary: Inhibition of recombinant human MAO-A using kynuramine as substrate after 20 mins by fluorescence assay
pIC50: −log10 of the molar value.
pIC50 vs 5: at or above is 1, below is -1.

Tell me whether pIC50 is at least 5 here: CCCC/C(C)=N\Nc1nc(-c2cccc([N+](=O)[O-])c2)cs1
1

And what about the molecule CC(C)=NNc1nc(-c2cccc([N+](=O)[O-])c2)cs1 ?
1

Let us now turn to O=[N+]([O-])c1cccc(-c2csc(NN=C3CCCCC3)n2)c1
1

Next entry: C/C(=N/Nc1nc(-c2cccc([N+](=O)[O-])c2)cs1)C1CC1
1

# repeat for O=[N+]([O-])c1cccc(-c2csc(NN=C3CCCCCCC3)n2)c1
1

Likewise for C=CCC/C(C)=N\Nc1nc(-c2cccc([N+](=O)[O-])c2)cs1 ?
1

Thanks! And C/C(=N/Nc1nc(-c2cccc([N+](=O)[O-])c2)cs1)C1CCCCC1 ?
-1

Queued: CC1CCC(=NNc2nc(-c3cccc([N+](=O)[O-])c3)cs2)CC1 (stereo unspecified)
1

Proceed to CCC(CC)=NNc1nc(-c2cccc([N+](=O)[O-])c2)cs1
-1

And what about the molecule CCCC/C(CC)=N\Nc1nc(-c2cccc([N+](=O)[O-])c2)cs1 ?
1

Would you mind doing CC/C(C)=N\Nc1nc(-c2cccc([N+](=O)[O-])c2)cs1 as well?
-1

###

Please go through the items and note down their pIC50.
- targetUnderTest: Amine oxidase [flavin-containing] A (Homo sapiens, UniProt P21397)
- Sequence (P21397 whole entry): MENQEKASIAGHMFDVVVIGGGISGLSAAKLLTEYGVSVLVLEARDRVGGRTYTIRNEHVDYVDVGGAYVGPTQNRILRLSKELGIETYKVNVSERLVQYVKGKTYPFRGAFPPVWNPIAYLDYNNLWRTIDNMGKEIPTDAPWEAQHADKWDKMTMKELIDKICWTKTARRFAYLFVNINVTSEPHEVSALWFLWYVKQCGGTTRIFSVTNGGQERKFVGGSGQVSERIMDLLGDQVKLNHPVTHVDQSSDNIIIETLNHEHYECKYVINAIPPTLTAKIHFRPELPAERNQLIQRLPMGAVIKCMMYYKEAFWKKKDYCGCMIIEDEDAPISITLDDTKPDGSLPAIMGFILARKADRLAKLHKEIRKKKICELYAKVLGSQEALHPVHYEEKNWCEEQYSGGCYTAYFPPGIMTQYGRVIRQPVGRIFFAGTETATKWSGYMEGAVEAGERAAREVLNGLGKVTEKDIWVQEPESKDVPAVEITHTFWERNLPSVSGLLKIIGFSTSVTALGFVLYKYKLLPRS
- protocolSummary: Inhibition of recombinant human MAO-A using kynuramine as substrate after 20 mins by fluorescence assay
When answering, recall that pIC50 equals minus log10 of the concentration in mol/L, and write that number alone.

Can you share its pIC50? I mean this compound: O=[N+]([O-])c1cccc(-c2csc(NN=C3CCCC3)n2)c1
5.46

Can you check CCC/C(C)=N\Nc1nc(-c2cccc([N+](=O)[O-])c2)cs1 next?
4.42

Okay, and CCCCCC/C(C)=N\Nc1nc(-c2cccc([N+](=O)[O-])c2)cs1 ?
4.96

Queued: CCC/C(CC)=N\Nc1nc(-c2cccc([N+](=O)[O-])c2)cs1
5.31

And for C/C(CC(C)C)=N/Nc1nc(-c2cccc([N+](=O)[O-])c2)cs1 ?
5.36

Same again, this time with O=[N+]([O-])c1cccc(-c2csc(NN=C3CCCCCC3)n2)c1
5.80

###

- targetUnderTest: Cholinesterase (Equus caballus)
- protocolSummary: Inhibition of horse serum BuChE at 3 uM using butyrylthiocholine iodide as substrate preincubated for 15 mins followed by substrate addition measured after 10 mins by spectrophotometry based-Ellman's method
valueKind: inhibition (%)
Please state the figure in %; there is no need to write the unit.

# get_value(readout='inhibition', item= O=[N+]([O-])c1cccc(-c2csc(NN=C3CCCCCCC3)n2)c1 )
7.64

# iterate: C/C(=N/Nc1nc(-c2cccc([N+](=O)[O-])c2)cs1)C1CCCCC1
6.22

Now the same for CCCCCC/C(C)=N\Nc1nc(-c2cccc([N+](=O)[O-])c2)cs1
9.54

Param item: CC/C(C)=N\Nc1nc(-c2cccc([N+](=O)[O-])c2)cs1
12.1

Now the same for C/C(=N/Nc1nc(-c2cccc([N+](=O)[O-])c2)cs1)C1CC1
12.8

Try this molecule next: C/C(CC(C)C)=N/Nc1nc(-c2cccc([N+](=O)[O-])c2)cs1
8.98

Proceed to O=[N+]([O-])c1cccc(-c2csc(NN=C3CCCCCC3)n2)c1
7.11

Try this molecule next: CCCC/C(C)=N\Nc1nc(-c2cccc([N+](=O)[O-])c2)cs1
11.3

Same question for CCC/C(C)=N\Nc1nc(-c2cccc([N+](=O)[O-])c2)cs1 please.
5.16

Then this molecule: CC1CCC(=NNc2nc(-c3cccc([N+](=O)[O-])c3)cs2)CC1 (stereo not drawn)
4.87

One more molecule: CC(C)=NNc1nc(-c2cccc([N+](=O)[O-])c2)cs1
12.8

Next: CCCC/C(CC)=N\Nc1nc(-c2cccc([N+](=O)[O-])c2)cs1
10

One more molecule: O=[N+]([O-])c1cccc(-c2csc(NN=C3CCCC3)n2)c1
12.4

Can you check COc1ccc2c3c1O[C@H]1C[C@@H](O)C=C[C@@]31CCN(C)C2 next?
13.6

One more molecule: C=CCC/C(C)=N\Nc1nc(-c2cccc([N+](=O)[O-])c2)cs1
6.35

Try this molecule next: O=[N+]([O-])c1cccc(-c2csc(NN=C3CCCCC3)n2)c1
8.41

Please answer likewise for CCC/C(CC)=N\Nc1nc(-c2cccc([N+](=O)[O-])c2)cs1
11

Same read-out for CCC(CC)=NNc1nc(-c2cccc([N+](=O)[O-])c2)cs1 ?
7.45

meta.source: ChEMBL document CHEMBL4138155
